In this section we review reported MIC values for a set of compounds.
Tested on: Staphylococcus epidermidis
measurement-notes: The compound was tested in vitro for antibiotic activity against Staphylococcus epidermidis 3519
Format: functional
Numbers only; they are read as µg/mL.

1. O=C(O)c1cn(-c2ccccc2)c2cc(N3CCNCC3)c(F)cc2c1=O ... 0.78
2. CN1CCN(c2cc3c(cc2F)c(=O)c(C(=O)O)c2sc4ccccc4n23)CC1 ... 0.78
3. CC(=O)N1CCN(c2cc3c(cc2F)c(=O)c(C(=O)O)c2sc4ccccc4n23)CC1 ... 0.39
4. CCC(=O)N1CCN(c2cc3c(cc2F)c(=O)c(C(=O)O)c2sc4ccccc4n23)CC1 ... 0.39

Query: Data request, read-out MIC, for O=C(O)c1c(=O)c2cc(F)c(N3CCNCC3)cc2n2c1sc1ccccc12
Reply: 0.39

====

Let's look at some compounds and their measured MIC.
Tested on: Acinetobacter
measurement-notes: Compound was tested in vitro for antibiotic activity against the bacteria Acinetobacter sp. CMX669
Format: functional
Kindly provide the numeric value in µg/mL only, without the unit symbol.

1. CC(=O)N1CCN(c2cc3c(cc2F)c(=O)c(C(=O)O)c2sc4ccccc4n23)CC1 ... 6.2
2. O=C(O)c1c(=O)c2cc(F)c(N3CCNCC3)cc2n2c1sc1ccccc12 ... 0.39
3. CCC(=O)N1CCN(c2cc3c(cc2F)c(=O)c(C(=O)O)c2sc4ccccc4n23)CC1 ... 0.1

Now look at this entry.
Query: # input compound: CN1CCN(c2cc3c(cc2F)c(=O)c(C(=O)O)c2sc4ccccc4n23)CC1 ; wanted: its MIC
Reply: 0.39
